From: the supplement of paper PMC9170038

# Test system: MS2 coat protein
# RUN DESCRIPTION: apparent KD of MS2 coat protein; designed switch direction (-1 OFF switch, 1 ON switch): -1; higher = weaker reporter binding
# MEASUREMENT SETUP: input ligand: FMN 200 uM
Answer F if apparent KD of MS2 coat protein is under 0.1 µM, and T if it is 0.1 µM or more.

CHAIN SEQUENCE	CATEGORY LABEL
AUCGUGCAGCUUUGCUGUACGAGUACAUGAGGAUCACCCAUGUAGGAUAUGGUACGCAAAGCGUGCUAGAAGGAUAUGAGAUGU [Mat - Exclusion NG 3 - Mod of JL - D98] (Eterna round: R96, puzzle: Exclusion NG 3)	F
CCACAUGCAGGAUAUGUAAAAUUUGACAUGAGGAUCACCCAUGUAGAUCCUGAAUUUCCUGCAGAAGGGCAUGUGG [Mat - Exclusion 5 - Eli Mod - D19] (Eterna round: R97, puzzle: Exclusion 5)	T

Q: Given GCUAGAGCAGGAUAUUUAGAUCCUCACAUGAGGAUCACCCAUGUGGCCGAAAGGCUAAGGAGAGAAGGGCUCUAGC [Omei Ex5 E23] (Eterna round: R97, puzzle: Exclusion 5) , state whether its apparent KD of MS2 coat protein is at least 0.1 µM.
Ans: T

Q: Given UGUUGUCGCGUAGGAUAUGGCCAACAGGCCCUAGGAUAUGCGAAAGCAGAAGGAGCGCCAACAGGCGAGAAGGACGGGACAACU [pwkr exNG2 2xF7 2xFMN.17] (Eterna round: R96, puzzle: Exclusion NG 2) , state whether its apparent KD of MS2 coat protein is at least 0.1 µM.
Ans: F

Q: Given AGCUAGUCAGGAUAUUCUGUUAAUUACAUGAGGAUCACCCAUGUGAAUGGACAAGGGUGUGAAGAAGGGACUAGCG [Omei Ex5 A15] (Eterna round: R97, puzzle: Exclusion 5) , state whether its apparent KD of MS2 coat protein is at least 0.1 µM.
Ans: T

Q: Given AAUUAAUAUCAGGAUAUGACGUGCUGCGGCACGUCAGAAGGGAUGACAUGAGGAUCACCCAUGUGAUCAAUUAA [E6/1-A3] (Eterna round: R97, puzzle: Exclusion 6) , state whether its apparent KD of MS2 coat protein is at least 0.1 µM.
Ans: T

Q: Given AUAAUGUCAGGAUAUCAGACGUACAGCUUCGGCUGUACGUCUGAGAAGGGACAUGAGGAUCACCCAUGUGAUUA [E4/3-A1] (Eterna round: R97, puzzle: Exclusion 4) , state whether its apparent KD of MS2 coat protein is at least 0.1 µM.
Ans: T

Q: Given CAGUACUGAGGAUAUACAUGAGGAUCACCCAUGUCCCAAAAGUAGGAUACUACUAUUAGUAGAAGGCAGUACUG [Fiskers Ex 3 828 mod 25] (Eterna round: R96, puzzle: Exclusion 3) , state whether its apparent KD of MS2 coat protein is at least 0.1 µM.
Ans: T

Q: Given AAUUUACAUGAGGAUCACCCAUGUGAGGAUAUAUGCAAAGAAGUGUUAGUAAGAAAGCAUAGAAGGCGCGUGAU [JR_Exc1_Sub041] (Eterna round: R97, puzzle: Exclusion 1) , state whether its apparent KD of MS2 coat protein is at least 0.1 µM.
Ans: F

Q: Given ACAUGAGGAUCACCCAUGUCCGGCUGGUCCGUCUCGGCUGUCGAGGAUAUAGCUUGGUGUCCGCGCUAGAAGGUGGGAGCCGGU [Aenatbe mod 70] (Eterna round: R96, puzzle: Exclusion NG 3) , state whether its apparent KD of MS2 coat protein is at least 0.1 µM.
Ans: F
